# System: UO-31 renal
# experiment notes: NCI-60 one-dose screen, 48 h (100 = growth as untreated, 0 = no growth, -100 = all killed)
# experimental setup: 10 µM unless noted
The panel holds about 83,000 compounds, 20% with a hit somewhere; the sample as a whole holds those more often. Calls of active or inactive are those of the source. How the source made its calls: active means growth percent below 10; inactive means the rest.
Entries and their growth

>  <compound>
C=C1C(=O)O[C@H]2[C@H]1CC/C(COC(=O)c1cc3cc(OC)ccc3[nH]1)=C\CC[C@@]1(C)O[C@@H]21

>  <growth>
-95.6% (active)

$$$$
>  <compound>
COc1cc2c(cc1O)CC[C@@H]1[C@@H]2CC[C@]2(C)[C@@H](OCCN(C)C)CC[C@@H]12

>  <growth>
72.3% (inactive)

$$$$
>  <compound>
CC(=O)c1nc2ccccc2n1CC(=O)c1cccc(Cl)c1

>  <growth>
28.3% (inactive)

$$$$
>  <compound>
O=C(CCN1C(=O)/C(=C/c2ccc(Cl)cc2)SC1=S)NCCCN1CCOCC1

>  <growth>
84.9% (inactive)

$$$$
>  <compound>
N#Cc1c(N)n(CCNC(=O)c2ccccc2)c2nc3ccccc3nc12

>  <growth>
89.4% (inactive)

$$$$
>  <compound>
COc1cc(/C=C/C(=O)Nc2cccnc2Nc2ccc(F)cc2)cc(OC)c1OC

>  <growth>
89.2% (inactive)

$$$$
>  <compound>
COc1cccc(C2=NN3C(C2)c2cc(Br)cc(OC)c2OC32CCN(Cc3ccccc3)CC2)c1 (centres undefined)

>  <growth>
85.3% (inactive)

$$$$
>  <compound>
CCCCN1CCCn2c1nc1c2c(=O)n(CCC)c(=O)n1CCC

>  <growth>
76.8% (inactive)

$$$$
>  <compound>
COc1cc(C2CC(=O)c3ccccc3N2)cc(OC)c1OC (centres undefined)

>  <growth>
92.4% (inactive)

$$$$
>  <compound>
O=C(Nc1ccc(Cl)cc1)c1cc2cc(F)ccc2cc1O

>  <growth>
12.6% (inactive)

$$$$
>  <compound>
c1ccc2[nH]c(-c3ccc(Nc4nc(N5CCCC5)nc5[nH]ncc45)cc3)nc2c1

>  <growth>
-27.1% (active)

$$$$
>  <compound>
CC1=CC(=NN=c2cc(C)n([O-])c(C)c2)C=C(C)[N+]1=O

>  <growth>
85.7% (inactive)

$$$$
>  <compound>
C=CC(=O)Nc1cccc(Nc2nc(SC)nc(-c3cccc([N+](=O)[O-])c3)c2C#N)c1

>  <growth>
60.8% (inactive)

$$$$
>  <compound>
CC(=O)O[C@H]1C(=O)[C@@]2(C)[C@H]([C@H](OC(=O)c3ccccc3)[C@]3(O)C[C@H](OC(=O)[C@H](OC(=O)CCC(=O)OC4CCC(S/N=C(N)/N=C(\N)N(C)C)CC4)[C@@H](NC(=O)c4ccccc4)c4ccccc4)C(C)=C1C3(C)C)[C@]1(OC(C)=O)CO[C@@H]1C[C@@H]2O (some centres undefined)

>  <growth>
47.3% (inactive)

$$$$
>  <compound>
C#Cc1cccc(NC(=O)c2ccccc2NC(=O)C=C)c1

>  <growth>
85.6% [8.25 µM] (inactive)

$$$$
>  <compound>
CCN(CC)c1ccc(-c2cc(-c3cc(OC)c(OC)c(OC)c3)nc(N3CCOCC3)c2C#N)cc1

>  <growth>
5.65% (active)

$$$$
>  <compound>
COc1nc2c(c(=O)n1C)CN(Cc1ccccc1)C=N2

>  <growth>
77.3% (inactive)

$$$$
>  <compound>
COCCNc1ccc2c3c(cccc13)C(=O)N(CCN(C)C)C2=O

>  <growth>
10.6% (inactive)

$$$$
>  <compound>
CCCOc1cc2ccccc2cc1C(=O)Nc1nc(N)c2c(ccc3nccc32)[nH]1

>  <growth>
-65% (active)

$$$$
>  <compound>
O=C1c2ccccc2OC=C(c2ccccc2)N1CCCCNc1ccc(S(=O)(=O)Nc2ncccn2)cc1

>  <growth>
85.7% (inactive)

$$$$
>  <compound>
COc1cc(/C=C/c2cc(/C=C/c3ccc(O)c(OC)c3)n(-c3c(Cl)cccc3Cl)c(=O)n2)ccc1O

>  <growth>
25.2% (inactive)

$$$$
>  <compound>
OCCNc1nccc(N2CCN(c3ccnc4cc(Cl)ccc34)CC2)n1

>  <growth>
47.7% (inactive)

$$$$
>  <compound>
COc1ccc(C(=O)COc2cccc(/C=C3\CSc4ccccc4C3=O)c2)cc1

>  <growth>
18% (inactive)

$$$$
>  <compound>
CCC#CC[C@H](O)C/C=C1/C(=O)C=C[C@@H]1C/C=C\CCCC(=O)OC

>  <growth>
-65.4% (active)

$$$$
>  <compound>
COc1cc2c(cc1O)CC[C@@H]1[C@@H]2CC[C@]2(C)[C@@H](NCCN(C)C)CC[C@@H]12

>  <growth>
-84.1% (active)

$$$$
>  <compound>
CC(C)C[C@@H](NC(=O)[C@@H](Cc1ccccc1)NC(=O)c1cnccn1)B1Oc2ccc(C[C@H](NC(=O)[C@H](Cc3ccc4c(c3)OB([C@@H](CC(C)C)NC(=O)[C@@H](Cc3ccccc3)NC(=O)c3cnccn3)O4)NC(=O)[C@@H](N)CC3CCC4OB([C@@H](CC(C)C)NC(=O)[C@@H](CC5CCCCC5)NC(=O)C5CNCCN5)OC4C3)C(=O)NCCCC[C@@H]3NC(=O)[C@@H](Cc4ccccc4)NC(=O)[C@H](CC(=O)O)NC(=O)CNC(=O)[C@H](CCCNC(=N)N)NC3=O)cc2O1 (some centres undefined)

>  <growth>
-27.2% (active)

$$$$
>  <compound>
CCN=C1C=CC(=C(c2ccc(N)cc2)c2ccc(N(CC)CC)c(C)c2)C=C1

>  <growth>
3.22% (active)

$$$$
>  <compound>
Cn1ccnc1C(=O)/C=C/c1ccccc1

>  <growth>
-33.7% (active)

$$$$
>  <compound>
O=C1c2cccc3cccc(c23)C(=O)N1CCCCN1CCN(CCCCOc2ccc(-c3nc4ccc(N5CCOCC5)cc4[nH]3)cc2)CC1

>  <growth>
32.8% (inactive)

$$$$
>  <compound>
CNC(=O)c1cc(Oc2ccc(NC(=O)Nc3ccc(Cl)c(OC(F)(F)F)c3)c(F)c2)ccn1

>  <growth>
23% (inactive)

$$$$
>  <compound>
O=c1nc2oc3ccc4ccccc4c3cc-2s1

>  <growth>
46.9% (inactive)

$$$$
>  <compound>
COc1cc2c(cc1-c1c(C)noc1C)ncc1nc(C3CCCCC3)n([C@H](C)COC(F)F)c12

>  <growth>
13.6% (inactive)

$$$$
>  <compound>
CCOC(=O)c1c(C)oc2ncnc(N3CCN(C(=O)COc4ccc(SC)cc4)CC3)c12

>  <growth>
74.4% (inactive)

$$$$
>  <compound>
Cc1cc(N2CCN(C)CC2)nc(NC2CCCC(Nc3ccnc4cc(Cl)ccc34)C2)n1 (centres undefined)

>  <growth>
-100% (active)

$$$$

* * *

# Tested on: OVCAR-5 ovarian
# experiment notes: NCI-60 one-dose screen, 48 h (100 = growth as untreated, 0 = no growth, -100 = all killed)
# experimental setup: 10 µM unless noted
Compounds without any hit were thinned out: in the full panel of roughly 83,000, 20% have a hit. Activity calls are given as the source filed them. The calls were made as follows: active = growth percent below 10; inactive = the rest.
reported metric: growth

>  <compound>
Clc1ccc2c(NCCCNc3nc(-n4ccnc4)nc4ccccc34)ccnc2c1

>  <reported>
96.3% (inactive)

$$$$
>  <compound>
O=c1cc(CSc2nnc(-c3ccc(F)cc3)o2)c2ccc3ccccc3c2o1

>  <reported>
93% (inactive)

$$$$
>  <compound>
C#CCOc1ccc2ncnc(N3CCN(C(=O)CCl)CC3)c2c1

>  <reported>
93.3% [8.25 µM] (inactive)

$$$$
>  <compound>
CC(C)c1c(C(=O)c2ccccc2)c(-c2ccccc2)c(-c2ccc(F)cc2)n1CC[C@@H](O)C[C@@H](O)CC(=O)O

>  <reported>
88.2% (inactive)

$$$$
>  <compound>
c1ccc(CCNc2ncnc3[nH]ncc23)cc1

>  <reported>
82.5% (inactive)

$$$$
>  <compound>
CCN(CC)CCCCNc1c2ccc(Cl)cc2nc2ccc(OC)cc12

>  <reported>
-12.2% (active)

$$$$
>  <compound>
Nc1n[nH]c2ccc([C@@H]3Nc4ccc5cn[nH]c5c4[C@H]4C5CCC(C5)[C@@H]34)cc12 (stereo not given in full)

>  <reported>
40.3% (inactive)

$$$$
>  <compound>
NC(=O)c1cc(Cl)ccc1NC(=O)/C=C/c1ccccc1

>  <reported>
54.6% (inactive)

$$$$
>  <compound>
O=C(/C=C/c1cccc(Cl)c1)c1ccc(O)c(CN2CCN(c3cc4c(cc3F)c(=O)c(C(=O)O)cn4C3CC3)CC2)c1

>  <reported>
52.6% (inactive)

$$$$
>  <compound>
Cc1cc(N[C@@H]2CCC[C@H](Nc3ccnc4cc(Cl)ccc34)C2)nc(N2CCCCCC2)n1

>  <reported>
-15.8% (active)

$$$$
>  <compound>
N#Cc1c(-c2ccc(Cl)cc2)nc(NN=Cc2ccco2)nc1N1CCOCC1

>  <reported>
76.9% (inactive)

$$$$
>  <compound>
COc1ccc(-c2nc3ccc(-c4nc5ccc(N6CCN(c7ccc(F)cc7)CC6)cc5[nH]4)cc3[nH]2)cc1OC

>  <reported>
96.1% (inactive)

$$$$
>  <compound>
C=C1c2nc3ccccc3n2C=C(c2cccc(Cl)c2)N1Cc1ccc(OC)cc1

>  <reported>
35.3% (inactive)

$$$$
>  <compound>
COc1ccc(C2CC(c3ccc4ccccc4c3)=NN2/C=C2\SC(=S)N(NC(=O)Cc3ccccc3Nc3c(Cl)cccc3Cl)C2=O)cc1 (stereo not given)

>  <reported>
56.8% (inactive)

$$$$
>  <compound>
CCCSc1ccc2nc(NC(=O)OC)[nH]c2c1

>  <reported>
34.2% (inactive)

$$$$
>  <compound>
OC(COc1cccc2ccccc12)CN1CCN(c2ccccc2Cl)CC1 (stereo not given)

>  <reported>
85.3% (inactive)

$$$$
>  <compound>
Clc1ccc2c(NCCCCNc3nc(N4CCOCC4)nc4ccccc34)ccnc2c1

>  <reported>
64.8% (inactive)

$$$$
>  <compound>
COc1ccc(S(=O)(=O)N2CC3(COC3)C2)cc1NC(=O)c1[nH]c(C)c2c1CCCCC2=O

>  <reported>
61.1% (inactive)

$$$$
>  <compound>
Cc1cc(C)nc(SC2=C(Nc3ccc(C)c(Cl)c3)C(=O)N(Cc3ccccc3)C2=O)n1

>  <reported>
103% [30 µM] (inactive)

$$$$
>  <compound>
CN(C)S(=O)(=O)c1ccc(S(=O)(=O)Nc2cccc(Cl)c2N2CCCCC2)cc1

>  <reported>
89.4% (inactive)

$$$$

The values you see were collected from PubChem BioAssay (NCI).
